# EXPERIMENT_SUMMARY: Hemolytic activity against human erythrocytes at 160 uM measured after 4 hrs
# Format: toxicity, cell-based, Erythrocyte
# REPORTED_CONDITIONS: read-out: Activity
Non-standard residues stand in square brackets, D forms with d. Residues, ends and D or L forms follow the SMILES beside them. dDip = N[C@@H](C(=O)O)C(c1ccccc1)c1ccccc1; Dip = N[C@H](C(=O)O)C(c1ccccc1)c1ccccc1
READOUT: hemolysis at 4 h, 160 µM

- COMPOUND: "NCCCC[C@H](NC(=O)[C@@H](NC(=O)[C@H](Cc1c[nH]c2ccccc12)NC(=O)[C@H](CCCCN)NC(=O)[C@H](CCCCN)NC(=O)[C@H](Cc1c[nH]c2ccccc12)NC(=O)[C@H](Cc1c[nH]c2ccccc12)NC(=O)[C@H](CCCCN)NC(=O)[C@@H](N)CCCCN)C(c1ccccc1)c1ccccc1)C(N)=O [RUXOTEMITIDE] (H-KKWWKKW[Dip]K-NH2)"
  hemolysis at 4 h, 160 µM: "> 20%"

Okay, next one:
// query # query: hemolysis at 4 h, 160 µM of entry NCCCC[C@@H](N)C(=O)N[C@H](CCCCN)C(=O)N[C@H](Cc1c[nH]c2ccccc12)C(=O)N[C@H](Cc1c[nH]c2ccccc12)C(=O)N[C@H](CCCCN)C(=O)N[C@H](CCCCN)C(=O)N[C@H](Cc1c[nH]c2ccccc12)C(=O)N[C@@H](C(=O)N[C@H](CCCCN)C(N)=O)C(c1ccccc1)c1ccccc1 (H-[dK][dK][dW][dW][dK][dK][dW][dDip][dK]-NH2)
// result > 20%

Where do these numbers come from? They come from ChEMBL document CHEMBL5518198.
